Study target: HLA-A*1101 (human)
Assay protocol: competition with 125I-labelled standard peptide on purified HLA-A*1101, gel filtration
Reported property: binding affinity ratio (IC50 of standard peptide / IC50 of test peptide)
One number for each entry.

Example entries begin here.
Ask: Provide only the value of recorded binding affinity ratio (IC50 of standard peptide / IC50 of test peptide) for LGEYIRKRYR (modifications not checked) [PAP peptide … (position 81, 10 amino acids)]
Reply: 0.0002

Ask: For the binder LVFRHGDR (modifications not checked) [PAP peptide LVFRHGDR (position 40, 8 amino acids)] , give its reported binding affinity ratio (IC50 of standard peptide / IC50 of test peptide).
Reply: 0.0002

Let us examine a further case.
Ask: Give the reported binding affinity ratio (IC50 of standard peptide / IC50 of test peptide) for this binder. LGIASGRAR (modifications not checked) [PSM peptide … (position 528, 9 amino acids)]
Reply: 0.0002

The reported measurements were obtained from patent US20070020327A1.
